target: D(2) dopamine receptor (Rattus norvegicus) (UniProt P61169); assay: In vitro binding affinity for Dopamine receptor D2 of rat nucleus accumbens labeled with [3H]spiperone was determined at 10 uM concentration
Sequence (P61169 whole entry): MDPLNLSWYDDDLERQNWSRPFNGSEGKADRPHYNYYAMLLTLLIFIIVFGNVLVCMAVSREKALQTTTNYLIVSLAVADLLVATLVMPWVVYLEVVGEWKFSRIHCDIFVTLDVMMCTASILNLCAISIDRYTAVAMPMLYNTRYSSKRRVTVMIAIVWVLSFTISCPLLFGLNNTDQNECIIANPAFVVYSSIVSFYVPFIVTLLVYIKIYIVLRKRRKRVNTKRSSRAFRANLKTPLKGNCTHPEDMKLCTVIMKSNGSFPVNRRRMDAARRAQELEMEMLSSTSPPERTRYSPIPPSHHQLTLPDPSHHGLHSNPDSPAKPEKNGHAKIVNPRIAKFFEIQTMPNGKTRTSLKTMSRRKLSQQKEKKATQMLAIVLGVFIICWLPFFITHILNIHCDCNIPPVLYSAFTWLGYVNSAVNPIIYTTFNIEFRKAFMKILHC
measured-metric: inhibition (%)

1) COc1ccc2[nH]c3c(c2c1)CCN(Cc1c(OC)cccc1OC)C3 : 27
2) CN(C)CCCn1c2c(c3ccccc31)CCN(CCCc1cccnc1)C2 : 17
3) c1ccc2c(c1)c1c(n2CCCN2CCCCC2)CN(CCCc2ccncc2)CC1 : 22
4) c1cncc(CCCN2CCc3c(n(CCCN4CCCCC4)c4ccccc34)C2)c1 : 26

(A) COc1cccc(OC)c1CN1CCc2c([nH]c3ccccc23)C1
(B) c1ccc(CCN2CCc3c(n(CCCN4CCCCC4)c4ccccc34)C2)nc1
Input line: Sort A and B by inhibition descending and give the first. // respond with label for picked entry
Output line: A
(A: 27%, B: 9%)
